Ref: the RNAGym collection of RNA variant scans (doi:10.1002/anie.201605470)

B1: Osa-1-4 twister ribozyme (parent)
chain: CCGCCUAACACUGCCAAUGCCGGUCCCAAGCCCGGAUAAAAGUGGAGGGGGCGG

Variants of: B1
test_name: self-cleavage, relative activity (ratio to wild type); higher = more cleavage; co-transcriptional
true means recorded self-cleavage is 0.1 or above; false means it is below 0.1.

• CCGCCUAACACUUCCAAUGCCGGUCCCAAGCCCCGAUAAAAGUGGAGGGGGCGG [G13U G34C] = false
• CCGCCUAACACUGCCACUGCCGGUCCCAAGCCCAGAUAAAAGUGGAGGGGGCGG [A17C G34A] = true
• CCGCCUAACACUGCCAAUGCGGGUCCCAAGCCCGGAUAAAAGUGGCGGGGGCGG [A46C C21G] = false

Test whether the variant CCGCCUAACACUGCCAAUGCAGGUCCCAAGCCCGGAUAAAAGUGGAGGGGGCAG [C21A G53A] records self-cleavage of 0.1 or higher.
true

Test whether the variant CCGCCUAACACUGCCAAUGCCCGUCCCAAGCCCGGAUAAAAGUGGAGGGGGCGG [G22C] records self-cleavage of 0.1 or higher.
true

Test whether the variant CCGCCUAACAGUGCCAAUGCCGGUCCCAAGCCCGGAUAAAAGUGGAGGGCGCGG [C11G G50C] records self-cleavage of 0.1 or higher.
true

Test whether the variant CCGCCUAACACUGCCAGCGCCGGUCCCAAGCCCGGAUAAAAGUGGAGGGGGCGG [A17G U18C] records self-cleavage of 0.1 or higher.
true

Test whether the variant CCGCCUAACACUGCCAAUGCAGGUCCCAACCCCGGAUAAAAGUGGAGGGGGCGG [C21A G30C] records self-cleavage of 0.1 or higher.
false

Test whether the variant CCGCCUAACACUGCCAAUGCCGGUCCCAAGCCUGGGUAAAAGUGGAGGGGGCGG [A36G C33U] records self-cleavage of 0.1 or higher.
true

Test whether the variant CCGCCUAACACUGCCAAUGCCGGUCCCAAGCCCGAAUAAAAGUGGAGAGGGCGG [G35A G48A] records self-cleavage of 0.1 or higher.
true

Test whether the variant CCGCCUAACACUGCCAAUGCCUGUCCCAAGCCCGGAUAAAAGUGGAUGGGGCGG [G22U G47U] records self-cleavage of 0.1 or higher.
false

Test whether the variant CCGCCUAACACUGCCAAUGCCUGUCCCAAGCCCGGAGAAAAGUGGAGGGGGCGG [G22U U37G] records self-cleavage of 0.1 or higher.
true
